# ASSAY TARGET: T1, human MSLN-R3-his protein (human, UniProt Q13421 487-598)
# T1 construct: it is put last here; also called human MSLN-R3 protein; hMSLN-R3-his; not shown: His tag
# T1 sequence (Q13421 495-606): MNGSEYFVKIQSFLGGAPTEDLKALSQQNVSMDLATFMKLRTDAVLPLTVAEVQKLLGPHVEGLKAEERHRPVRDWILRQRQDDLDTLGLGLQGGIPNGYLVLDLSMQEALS
# MEASUREMENT DESCRIPTION: ELISA on coated antigen, no antibody (blank, column 'none')
EXPERIMENTAL READOUT: OD450 (OD)
Form entry: value (OD) — number only.

These recorded examples may help you get a feel for the data.
BINDER	ASSAY VALUE
S009-F7.69.8 (antibody, human IgG1, kappa, V domains shown, Human-murine chimeric antibody, human IgG1 heavy and kappa light constant regions) VH: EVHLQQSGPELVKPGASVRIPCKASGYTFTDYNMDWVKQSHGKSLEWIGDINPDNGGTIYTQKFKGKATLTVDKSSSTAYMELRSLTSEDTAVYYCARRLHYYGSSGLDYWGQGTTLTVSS VL: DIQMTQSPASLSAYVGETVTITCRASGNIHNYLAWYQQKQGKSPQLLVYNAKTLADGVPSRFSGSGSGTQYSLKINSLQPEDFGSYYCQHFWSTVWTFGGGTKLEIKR	0.07
S009-F7.66.12 (antibody, human IgG1, kappa, V domains shown, Human-murine chimeric antibody, human IgG1 heavy and kappa light constant regions) VH: QIPLQQSGPELVKPGASVRISCKASDYAFSSSWMNWVKQRPEKGLEWIGRIFVESGNTHYNDKFNGKATLTADKSSRTAYIQLSSLTSEDSAVYFCTRENIFYHGHSSWFAYWGQGTLVTVSA VL: DIVLTQSPASLVVSLGQRATISCRAGESVDDFGISYVHWYQQKPGQPPKLLIYRAANLESGIPARFSGSGSRTDFTLTINPVETDDVAIYYCQQNNKDPFTFGSGTKLEIKR	0.06
S009-F7.33.24 (antibody, human IgG1, kappa, V domains shown, Human-murine chimeric antibody, human IgG1 heavy and kappa light constant regions) VH: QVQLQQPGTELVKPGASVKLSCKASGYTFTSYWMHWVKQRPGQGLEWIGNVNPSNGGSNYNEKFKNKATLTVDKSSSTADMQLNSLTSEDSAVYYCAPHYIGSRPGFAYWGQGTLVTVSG VL: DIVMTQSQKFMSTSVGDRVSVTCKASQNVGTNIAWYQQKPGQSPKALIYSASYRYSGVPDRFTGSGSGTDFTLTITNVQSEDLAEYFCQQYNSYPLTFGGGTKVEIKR	0.08
S009-F7.12.13 (antibody, human IgG1, kappa, V domains shown, Human-murine chimeric antibody, human IgG1 heavy and kappa light constant regions) VH: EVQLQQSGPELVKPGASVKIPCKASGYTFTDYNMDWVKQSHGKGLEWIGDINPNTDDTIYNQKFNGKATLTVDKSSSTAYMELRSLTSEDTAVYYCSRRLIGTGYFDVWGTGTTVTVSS VL: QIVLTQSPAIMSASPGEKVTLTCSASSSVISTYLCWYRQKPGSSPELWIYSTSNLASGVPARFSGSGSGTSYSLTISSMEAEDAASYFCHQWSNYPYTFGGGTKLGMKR	0.06

In the following, a different binder is considered.
input: Give the measured OD450 of Tab106 (YP218, hIgG1) (antibody, V domains shown, Control antibody; YP218 VH and VL recombined into human IgG1 CH and CL expression vectors; also called YP218 human IgG1 antibody) VH: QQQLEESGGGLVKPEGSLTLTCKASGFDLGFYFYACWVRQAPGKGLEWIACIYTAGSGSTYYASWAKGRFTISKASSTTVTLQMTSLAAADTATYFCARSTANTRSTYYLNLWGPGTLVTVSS VL: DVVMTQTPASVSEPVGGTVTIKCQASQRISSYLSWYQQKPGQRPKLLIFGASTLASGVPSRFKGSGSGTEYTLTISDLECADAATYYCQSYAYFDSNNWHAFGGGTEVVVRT .
output: 0.06
